protocol-summary: folding enthalpy; higher = less favourable; fluorescence melt of hairpins on a sequencing array, two-state fit
condition: sodium 0.088 M
measurement-type: folding enthalpy (kcal/mol)

INSERT INTO assay_data (query_sequence, measurement_type, val) VALUES
  ('GACACCGAAAGGTTCGTC ((((((....)))..)))', 'folding enthalpy', -20.4),
  ('GATCGGAACCCGATC ((((((...))))))', 'folding enthalpy', -44),
  ('GTCTCGTCGAAAGACGAC (((..(((....))))))', 'folding enthalpy', -7.57);

----------
protocol-summary: melting temperature; fluorescence melt of hairpins on a sequencing array, two-state fit, raised by 9.35 °C to match UV melts
condition: sodium 0.088 M
Using Tm as the sorting value, the categories are low-valued = under 40 °C, mid-valued = from 40 °C up to 50 °C, high-valued = 50 °C and over

INSERT INTO measurements (query_sequence, category_label) VALUES
  ('GGGTGGTCGAAAGACCCC (((..(((....))))))', 'high-valued'),
  ('GATCACAAGCGTGATC ((((((....))))))', 'high-valued'),
  ('GCACGCGAAAGCGATTGC ((((((....)))..)))', 'mid-valued'),
  ('GCATTCGGAAACAAATGC (((((.(....).)))))', 'low-valued'),
  ('GAAGGCGAAAGCCCCTTC ((((((....)))..)))', 'low-valued'),
  ('GGCAGCGAAAGCTTTGCC ((((((....)))..)))', 'high-valued'),
  ('GCTCAGGGAAACCTGAAC (.(((((....))))).)', 'low-valued'),
  ('GGTATCGCGAAAGCGACC (((..(((....))))))', 'low-valued'),
  ('GTTTGCGGAAACGTAGAC ((.(.((....)).).))', 'low-valued'),
  ('GATGCAGGAAACTACATC ((((.((....)).))))', 'low-valued'),
  ('AGAATGAAAATTCT (((((....)))))', 'low-valued'),
  ('GATCAAGATGTTGATC ((((((....))))))', 'mid-valued'),
  ('GATCTGGCCTCAGATC ((((((....))))))', 'high-valued'),
  ('GAGGACGAAAGTCCACTC ((((((....)))..)))', 'high-valued'),
  ('GATCCTTCTAAGGATC ((((((....))))))', 'high-valued'),
  ('GGTCGTGGAAACACGGTC (..((((....))))..)', 'mid-valued'),
  ('GGTCTTACGAAAGTAACC (((..(((....))))))', 'low-valued');

Each recorded value in this set is attributed to the array DNA melting data of Ke et al. (doi:10.1101/2024.01.08.574731).
